# Organism: Homo sapiens
# assay.protocol: Inhibition of telomerase (unknown origin) at 10 uM TRAP assay
Activity calls are given as the source filed them. The rule behind the calls is not given here.
readout.label: inhibition

[
  {
    "structure": "O=C(CNCCO)Nc1ccc2c(c1)C(=O)c1cc(NC(=O)CNCCO)ccc1-2",
    "readout.label": "inhibition",
    "test.value": "inactive"
  },
  {
    "structure": "CCNCC(=O)Nc1ccc2c(c1)C(=O)c1cc(NC(=O)CNCC)ccc1-2",
    "readout.label": "inhibition",
    "test.value": "inactive"
  },
  {
    "structure": "CCCSCC(=O)Nc1ccc2c(c1)C(=O)c1cc(NC(=O)CSCCC)ccc1-2",
    "readout.label": "inhibition",
    "test.value": "inactive"
  },
  {
    "structure": "O=C(CCN1CCCC1)Nc1ccc2c(c1)C(=O)c1cc(NC(=O)CCN3CCCC3)ccc1-2",
    "readout.label": "inhibition",
    "test.value": "inactive"
  },
  {
    "structure": "O=C(CCl)Nc1ccc2c(c1)C(=O)c1cc(NC(=O)CCl)ccc1-2",
    "readout.label": "inhibition",
    "test.value": "inactive"
  }
]

Task item: Return reported inhibition; argument: `CC(C)NCC(=O)Nc1ccc2c(c1)C(=O)c1cc(NC(=O)CNC(C)C)ccc1-2`
Reply: inactive

Task item: Return reported inhibition; argument: `Nc1ccc2c(c1)C(=O)c1cc(N)ccc1-2`
Reply: inactive

Task item: Return reported inhibition; argument: `CC(C)SCCC(=O)Nc1ccc2c(c1)C(=O)c1cc(NC(=O)CCSC(C)C)ccc1-2`
Reply: inactive

Task item: Return reported inhibition; argument: `CCSCCC(=O)Nc1ccc2c(c1)C(=O)c1cc(NC(=O)CCSCC)ccc1-2`
Reply: inactive

Task item: Return reported inhibition; argument: `CCCCNCCC(=O)Nc1ccc2c(c1)C(=O)c1cc(NC(=O)CCNCCCC)ccc1-2`
Reply: inactive
